Source listed as patent US9693556B2.

Task for the reader: assign each of the following compounds its reported PRE Application IPOHE herbicidal damage (five point scale).
Test system: Ipomoea hederacea (IPOHE)
Protocol: Pre-emergence herbicidal glasshouse test on Ipomoea hederacea
Type: in vivo
Measurement conditions: pre-emergence; 1000 g/h; evaluated after 13 days

Completed entries (count: 8):
Compound	Endpoint value
CS(=O)(=O)c1cc(Cl)ccc1-c1cnn(C2CC2)c(=O)c1O [Compound 2.014]	5 (5=80-100% damage)
CCn1ncc(-c2c(Cl)cccc2Cl)c(O)c1=O [Compound 1.011]	1 (1=0-19% damage)
Cc1c(-c2cnn(C(F)F)c(=O)c2O)ccc(S(C)(=O)=O)c1C1=NOCC1 [Compound 1.005]	1 (1=0-19% damage)
Cn1ncc(-c2ccc(C(F)(F)F)n(C)c2=O)c(O)c1=O [Compound 9.010]	1 (1=0-19% damage)
COCn1ncc(-c2ccc(Cl)cc2S(C)(=O)=O)c(O)c1=O [Compound 2.005]	5 (5=80-100% damage)
Cn1ncc(-c2ccccc2C(F)(F)F)c(O)c1=O [Compound 1.116]	1 (1=0-19% damage)
Cn1ncc(-c2ccc(C(F)(F)F)cc2S(=O)(=O)Cc2ccccc2)c(O)c1=O [Compound 2.047]	1 (1=0-19% damage)
Cn1ncc(-n2ccc3ccccc3c2=O)c(O)c1=O [Compound 1.069]	4 (4=60-79% damage)

Required: PRE Application IPOHE herbicidal damage (five point scale), one value per compound below.
1. CCCn1ncc(-c2c(Cl)cccc2Cl)c(O)c1=O [Compound 1.129]
2. Cn1ncc(-c2ccccc2[N+](=O)[O-])c(O)c1=O [Compound 1.111]
3. Cn1ncc(-c2ccc(S(C)(=O)=O)cc2Cl)c(O)c1=O [Compound 1.105]
4. COCCn1cccc(-c2cnn(C)c(=O)c2O)c1=O [Compound 9.009]

1 (1=0-19% damage)
2 (2=20-39% damage)
1 (1=0-19% damage)
1 (1=0-19% damage)

====

Task for the reader: assign each of the following compounds its reported PRE Application IPOHE herbicidal damage (five point scale).
Test system: Ipomoea hederacea (IPOHE)
Protocol: Pre-emergence herbicidal glasshouse test on Ipomoea hederacea
Assay type: in vivo
Measurement conditions: pre-emergence; 1000 g/h; evaluated after 13 days

Compound	Endpoint value
Cn1ncc(-c2ccc(C(F)(F)F)cc2Cl)c(O)c1=O [Compound 1.076]	1 (1=0-19% damage)

Look at each compound and report its PRE Application IPOHE herbicidal damage (five point scale).
1. C#Cc1ccc(-c2cnn(C)c(=O)c2O)c(S(C)(=O)=O)c1 [Compound 2.028]
2. CC(C)n1ncc(-c2ccc(C(F)(F)F)cc2S(C)(=O)=O)c(O)c1=O [Compound 1.013]

1: 4 (4=60-79% damage); 2: 4 (4=60-79% damage)

====

Test system: Setaria faberi (SETFA)
Protocol: Post-emergence herbicidal glasshouse test on Setaria faberi
Type: in vivo
Measurement conditions: post-emergence; 1000 g/h; evaluated after 13 days
Measured quantity: POST Application SETFA herbicidal damage (five point scale)

Past entries and their recorded results:
1) Cn1ncc(-c2ccc(C(F)(F)F)cc2S(=O)(=O)Cc2ccccc2)c(O)c1=O 3 (3=40-59% damage)
2) Cn1ncc(-c2ccc(SCc3ccccc3)cc2S(C)(=O)=O)c(O)c1=O 5 (5=80-100% damage)
3) Cn1ncc(-c2cnc(C(F)(F)F)nc2N2CCOCC2)c(O)c1=O 2 (2=20-39% damage)
4) CC(C)n1ncc(-c2c(Cl)ccc(Cl)c2Cl)c(O)c1=O 1 (1=0-19% damage)
5) CC#Cc1ccc(-c2cnn(C)c(=O)c2O)c(S(C)(=O)=O)c1 5 (5=80-100% damage)

Hello, I would appreciate it if you could give POST Application SETFA herbicidal damage (five point scale) for each entry below.
1. CCn1ncc(-c2c(Cl)ccc(Cl)c2Cl)c(O)c1=O
2. Cc1c(-c2cnn(C)c(=O)c2O)ccc2c1C(=O)N(C)S2(=O)=O
3. C=CCn1ncc(-c2ccccc2S(C)(=O)=O)c(O)c1=O
4. Cn1ncc(-c2cc(Cl)c(Cl)cc2Cl)c(O)c1=O
5. C#Cc1ccc(-c2cnn(C)c(=O)c2O)c(S(C)(=O)=O)c1
6. CSc1ccc(-c2c(C(F)(F)F)ccn(-c3cnn(C)c(=O)c3O)c2=O)cc1
7. COCCOCc1nc(C(F)(F)F)ccc1-c1cnn(C)c(=O)c1O

1. 1 (1=0-19% damage)
2. 1 (1=0-19% damage)
3. 5 (5=80-100% damage)
4. 1 (1=0-19% damage)
5. 5 (5=80-100% damage)
6. 3 (3=40-59% damage)
7. 5 (5=80-100% damage)

====

System: Alopecurus myosuroides (ALOMY)
Protocol: Post-emergence herbicidal glasshouse test on Alopecurus myosuroides
Assay type: in vivo
Measurement conditions: post-emergence; 1000 g/h; evaluated after 13 days
Measured quantity: POST Application ALOMY herbicidal damage (five point scale)

Please review the following examples before continuing.
Compound	Endpoint value
Cn1ncc(-c2cc3cccnc3nc2C(F)(F)F)c(O)c1=O [Compound 1.039]	4 (4=60-79% damage)
CN(Cc1nc(C(F)(F)F)ccc1-c1cnn(C)c(=O)c1O)S(C)(=O)=O [Compound 1.040]	4 (4=60-79% damage)
Cc1c(-c2cnn(C)c(=O)c2O)ccc(S(C)(=O)=O)c1C1=NOCC1 [Compound 1.018]	4 (4=60-79% damage)
Cn1ncc(-c2ccc(S(C)(=O)=O)cc2S(C)(=O)=O)c(O)c1=O [Compound 1.119]	5 (5=80-100% damage)
CC(C)n1ncc(-c2c(Cl)ccc(Cl)c2Cl)c(O)c1=O [Compound 1.015]	1 (1=0-19% damage)

# context switch: different compound, same POST Application ALOMY herbicidal damage (five point scale)
What value of measured POST Application ALOMY herbicidal damage (five point scale) is listed for Cn1ncc(-c2cccn(CC3CC3)c2=O)c(O)c1=O [Compound 9.006] ?
2 (2=20-39% damage)

====

Assign POST Application SETFA herbicidal damage (five point scale) to each entry below.
Tested on: Setaria faberi (SETFA)
Protocol: Post-emergence herbicidal glasshouse test on Setaria faberi
Assay type: in vivo
Measurement conditions: post-emergence; 1000 g/h; evaluated after 13 days

Some solved cases for reference:
Compound	Endpoint value
COCCOc1c(S(C)(=O)=O)ccc(-c2cnn(C)c(=O)c2O)c1Cl [Compound 1.034]	5 (5=80-100% damage)
C=CCn1cccc(-c2cnn(C)c(=O)c2O)c1=O [Compound 9.002]	2 (2=20-39% damage)
Cc1cc(-c2cnn(C)c(=O)c2O)c(=O)n(-c2ccsc2)c1 [Compound 6.002]	1 (1=0-19% damage)

Now for another entry.
Query: POST Application SETFA herbicidal damage (five point scale); subject: COc1cccc(-c2c(C(F)(F)F)ccn(-c3cnn(C)c(=O)c3O)c2=O)c1 [Compound 7.003]
3 (3=40-59% damage)

====

System: Amaranthus retoflexus (AMARE)
Protocol: Pre-emergence herbicidal glasshouse test on Amaranthus retoflexus
Type: in vivo
Measurement conditions: pre-emergence; 1000 g/h; evaluated after 13 days
Assign PRE Application AMARE herbicidal damage (five point scale) to each entry below.

Compound	Tested on	Endpoint value
Cc1ccccc1-c1c(C(F)(F)F)ccn(-c2cnn(C)c(=O)c2O)c1=O [Compound 1.053]	Amaranthus retoflexus (AMARE)	5 (5=80-100% damage)

Provide PRE Application AMARE herbicidal damage (five point scale) for all items below, preserving their order.
1. Cn1ncc(-n2ccc(O)c(C#N)c2=O)c(O)c1=O [Compound 1.066]
2. Cc1c(-c2c(C(C)C)nn(C)c(=O)c2O)ccc(S(C)(=O)=O)c1C1=NOCC1 [Compound 2.024]
3. CC(C)(C)n1ncc(-c2c(Cl)cccc2Cl)c(O)c1=O [Compound 1.133]
4. Cn1ncc(-c2cc(F)ccc2Cl)c(O)c1=O [Compound 1.086]

1: 4 (4=60-79% damage); 2: 5 (5=80-100% damage); 3: 1 (1=0-19% damage); 4: 1 (1=0-19% damage)

====

System: Alopecurus myosuroides (ALOMY)
Protocol: Post-emergence herbicidal glasshouse test on Alopecurus myosuroides
Type: in vivo
Measurement conditions: post-emergence; 1000 g/h; evaluated after 13 days
Experimental: Seeds of a variety of test species are sown in standard soil in pots (Alopecurus myosuroides (ALOMY), Setaria faberi (SETFA), Echinochloa crus-galli (ECHCG), Solanum nigrum (SOLNI), Amaranthus retoflexus (AMARE), Ipomoea hederacea (IPOHE)). […] After 13 days for pre and post-emergence, the test is evaluated for the percentage herbicidal damage caused to the plant. […]
Measured quantity: POST Application ALOMY herbicidal damage (five point scale)

Solved entries (count: 5):
Compound	Endpoint value
Cn1ncc(-n2ccc(C(F)(F)F)c(-c3cccc(Cl)c3)c2=O)c(O)c1=O [Compound 1.037]	4 (4=60-79% damage)
Cn1ncc(-c2ccc(S(=O)(=O)Cc3ccccc3)cc2S(C)(=O)=O)c(O)c1=O [Compound 2.036]	5 (5=80-100% damage)
CS(=O)(=O)c1ccc(-c2cn[nH]c(=O)c2O)c(Cl)c1C1=NOCC1 [Compound 2.055]	3 (3=40-59% damage)
COc1ccc(C(C)C)cc1-c1c(C(F)(F)F)ccn(-c2cnn(C)c(=O)c2O)c1=O [Compound 7.015]	2 (2=20-39% damage)
COc1cccc(-c2c(C(F)(F)F)ccn(-c3cnn(C)c(=O)c3O)c2=O)c1 [Compound 7.003]	4 (4=60-79% damage)

Please look at the items below and tell me POST Application ALOMY herbicidal damage (five point scale) for each one, in order.
1. C=Cc1ccc(-c2cnn(C)c(=O)c2O)c(S(C)(=O)=O)c1 [Compound 1.139]
2. Cn1ncc(-c2ccccc2S(C)(=O)=O)c(O)c1=O [Compound 1.046]
3. CC[S+]([O-])c1ccccc1-c1cnn(C)c(=O)c1O (stereo not shown) [Compound 1.041]
4. Cn1nc(O)c(-c2ccc(C(F)(F)F)cc2S(C)(=O)=O)c(O)c1=O [Compound 2.056]
5. Cn1ncc(-n2ccc(O)c(C#N)c2=O)c(O)c1=O [Compound 1.066]

1: 5 (5=80-100% damage); 2: 5 (5=80-100% damage); 3: 4 (4=60-79% damage); 4: 5 (5=80-100% damage); 5: 2 (2=20-39% damage)
